experimental.system: HLA-A*02:01 (Homo sapiens, UniProt P04439, D140Y/D185E/D98H/E176V/E277Q/G131W/G231S/I119V/I121R/I166T/I218V/L300P/L318F/N151K/N90K/P208A/P217A/Q86G/Q94H/R138H/R169H/T345S)
protocol.description: MHC binding assay (UV-ligand exchange, β2m ELISA, peptide exchange yield)
particulars: binding of HLA-class I restricted peptides to HLA-A*02:01, UV-ligand exchange
measured.attribute: Peptide exchange (MHC class I binding score, peptide exchange yield)

| substance | result |
| --- | --- |
| 113 (GLLPTPLFGV; listed as Homo sapiens) [compound 113] | “+++” (≥50 = +++) |
| 394 (LLAVIGGLVYL; listed as Homo sapiens) [compound 394] | “+++” (≥50 = +++) |
| 611 (YLLDDGTLVV; listed as Homo sapiens) [compound 611] | “++++” (≥75% = ++++) |
| 229 (RLPGPLGTV; listed as Homo sapiens) [compound 229] | “++” (≥20% = ++) |
| 285 (QLLHVGVTV; listed as Homo sapiens) [compound 285] | “+++” (≥50 = +++) |
| 98 (LIIDQADIYL; listed as Homo sapiens) [compound 98] | “+++” (≥50 = +++) |
| 100 (YLLSTNAQL; listed as Homo sapiens) [compound 100] | “++++” (≥75% = ++++) |
| 272 (ALGNTVPAV; listed as Homo sapiens) [compound 272] | “+++” (≥50 = +++) |
| 321 (GLFEDVTQPGILL; listed as Homo sapiens) [compound 321] | “++++” (≥75% = ++++) |
| 478 (YLLHEKLNL; listed as Homo sapiens) [compound 478] | “+++” (≥50 = +++) |
| 530 (VMYADIGGMDI; listed as Homo sapiens) [compound 530] | “+++” (≥50 = +++) |
| 328 (ALNDQVFEI; listed as Homo sapiens) [compound 328] | “+++” (≥50 = +++) |
| 96 (YIFTDNPAAV; listed as Homo sapiens) [compound 96] | “+++” (≥50 = +++) |
| 405 (ALYDVFLEV; listed as Homo sapiens) [compound 405] | “++” (≥20% = ++) |
| 145 (FLATSGTLAGI; listed as Homo sapiens) [compound 145] | “++” (≥20% = ++) |
| 591 (SMAELDIKL; listed as Homo sapiens) [compound 591] | “+++” (≥50 = +++) |
| 305 (SIANFSEFYV; listed as Homo sapiens) [compound 305] | “++++” (≥75% = ++++) |
| 569 (KLVDRTWTL; listed as Homo sapiens) [compound 569] | “+++” (≥50 = +++) |
| 60 (SLTIDGIYYV; listed as Homo sapiens) [compound 60] | “++++” (≥75% = ++++) |

---

experimental.system: HLA-A*02:01 (Homo sapiens, UniProt P04439, D140Y/D185E/D98H/E176V/E277Q/G131W/G231S/I119V/I121R/I166T/I218V/L300P/L318F/N151K/N90K/P208A/P217A/Q86G/Q94H/R138H/R169H/T345S)
protocol.description: MHC binding assay (UV-ligand exchange, β2m ELISA, peptide exchange yield)
particulars: binding of HLA-class I restricted peptides to HLA-A*02:01, UV-ligand exchange
measured.attribute: Peptide exchange (MHC class I binding score, peptide exchange yield)

| substance | result |
| --- | --- |
| 557 (KLYDDMIRL; listed as Homo sapiens) [compound 557] | “+++” (≥50 = +++) |
| 450 (FMIDASVHPTL; listed as Homo sapiens) [compound 450] | “+++” (≥50 = +++) |
| 528 (SVAEGRALMSV; listed as Homo sapiens) [compound 528] | “+++” (≥50 = +++) |
| 607 (RLYSGISGLEL; listed as Homo sapiens) [compound 607] | “+++” (≥50 = +++) |
| 135 (ALSEVDFQL; listed as Homo sapiens) [compound 135] | “+++” (≥50 = +++) |
| 70 (GLLDYPVGV; listed as Homo sapiens) [compound 70] | “+++” (≥50 = +++) |
| 431 (SLVNVVPKL; listed as Homo sapiens) [compound 431] | “++” (≥20% = ++) |
| 273 (NLFQSVREV; listed as Homo sapiens) [compound 273] | “++” (≥20% = ++) |
| 504 (GLSDGNPSL; listed as Homo sapiens) [compound 504] | “++” (≥20% = ++) |
| 322 (TLMTSLPAL; listed as Homo sapiens) [compound 322] | “+++” (≥50 = +++) |
| 266 (KITDTLIHL; listed as Homo sapiens) [compound 266] | “+++” (≥50 = +++) |
| 347 (SLFKHDPAAWEA; listed as Homo sapiens) [compound 347] | “++++” (≥75% = ++++) |
| 119 (FLYIGDIVSL; listed as Homo sapiens) [compound 119] | “++++” (≥75% = ++++) |
| 202 (ALLDQQGSRWTL; listed as Homo sapiens) [compound 202] | “+++” (≥50 = +++) |
| 128 (YLFDDPLSAV; listed as Homo sapiens) [compound 128] | “++” (≥20% = ++) |
| 386 (ILFRYPLTI; listed as Homo sapiens) [compound 386] | “+++” (≥50 = +++) |
| 15 (VLLTFKIFL; listed as Homo sapiens) [compound 15] | “++” (≥20% = ++) |
| 73 (NIFDLQIYV; listed as Homo sapiens) [compound 73] | “+++” (≥50 = +++) |
| 91 (IMQDFPAEIFL; listed as Homo sapiens) [compound 91] | “++++” (≥75% = ++++) |
